METHOD: proteolytic resistance in pig liver homogenate
Assay type: in vitro ADME
STUDY_CONDITIONS: pig, tissue homogenate, pH 5.0, 37° C.

COMPOUND | half-life [h]
CC[C@H](C)[C@@H]1NC(=O)[C@H](NC(=O)[C@@H](NC(=O)[C@H](CCCNC(=N)N)NC(=O)[C@@H](N)CC(=O)O)C(C)C)CSC[C@@H](C(=O)O)NC(=O)[C@H](Cc2c[nH]cn2)NC1=O [[Cyc^4-7]Ang(1-7), Asp-Arg-Val-Ala-Ile-His-Ala] | 11.8

====

METHOD: proteolytic resistance in pig pancreas homogenate
Type: in vitro ADME
STUDY_CONDITIONS: pig, pig pancreas homogenate, pH 5.0, 37° C., read-out: Degradation after 3 h (%)
PROPERTY_MEASURED: metabolised at 3 h, 0.8 μmol angiotensin/mg pancreas homogenate (%)

COMPOUND | QUANTITATIVE_READOUT
CC[C@H](C)[C@@H]1NC(=O)[C@H](NC(=O)[C@@H](NC(=O)[C@H](CCCNC(=N)N)NC(=O)[C@@H](N)CC(=O)O)C(C)C)CSC[C@@H](C(=O)O)NC(=O)[C@H](Cc2c[nH]cn2)NC1=O [[Cyc^4-7]Ang(1-7), Asp-Arg-Val-Ala-Ile-His-Ala] | 6
CC[C@H](C)[C@H](NC(=O)[C@H](Cc1ccc(O)cc1)NC(=O)[C@@H](NC(=O)[C@H](CCCNC(=N)N)NC(=O)[C@@H](N)CC(=O)O)C(C)C)C(=O)N[C@@H](Cc1c[nH]cn1)C(=O)N1CCC[C@H]1C(=O)O [Ang(1-7), DRVYIHP, reference compound] | 16
